biological target: beta-catenin/TCF4 engagement (Homo sapiens, UniProt P35222); construct: expressed in transfected cells; host or cells: HEK293; experiment: Nano-BRET target engagement assay (B-cat-Halo & TCF4-Luc in HEK293 cells); type: cell-based; details: absolute IC50; read-out: NanoBRET Abs IC50
Sequence (P35222 whole entry): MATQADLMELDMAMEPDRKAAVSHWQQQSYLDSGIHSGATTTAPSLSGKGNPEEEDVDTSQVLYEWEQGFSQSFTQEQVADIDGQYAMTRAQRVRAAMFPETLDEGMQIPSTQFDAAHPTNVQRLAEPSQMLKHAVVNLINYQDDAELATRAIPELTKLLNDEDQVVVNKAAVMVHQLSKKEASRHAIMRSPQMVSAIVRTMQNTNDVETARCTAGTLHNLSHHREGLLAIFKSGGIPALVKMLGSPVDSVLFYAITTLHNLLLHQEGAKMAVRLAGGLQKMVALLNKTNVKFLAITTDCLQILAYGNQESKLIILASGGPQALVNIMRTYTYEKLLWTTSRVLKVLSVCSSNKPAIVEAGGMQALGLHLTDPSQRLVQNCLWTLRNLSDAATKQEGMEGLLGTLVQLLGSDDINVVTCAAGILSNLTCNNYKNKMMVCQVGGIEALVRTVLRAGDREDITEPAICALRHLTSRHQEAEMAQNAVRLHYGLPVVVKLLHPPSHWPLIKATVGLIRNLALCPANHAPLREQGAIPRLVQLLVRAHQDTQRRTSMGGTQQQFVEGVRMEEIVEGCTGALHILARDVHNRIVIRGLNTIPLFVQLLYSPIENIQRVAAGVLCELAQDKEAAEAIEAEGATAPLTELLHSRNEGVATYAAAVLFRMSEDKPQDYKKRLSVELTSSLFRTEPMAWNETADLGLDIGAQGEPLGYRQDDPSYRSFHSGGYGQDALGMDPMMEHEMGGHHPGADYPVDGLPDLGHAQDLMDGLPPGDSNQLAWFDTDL
value_type: IC50 (µM)
Kindly provide the numeric value in µM only, without the unit symbol.

- CC(=O)N1CCC[C@]12CC=CCCCC1(CCCC=CCCCOC(=O)N3CC[C@@](C(=O)N[C@@H](Cc4ccccc4C(F)(F)F)C(=O)N[C@@H](Cc4csc5ccccc45)C(=O)N[C@@H](CCC(N)=O)C(=O)N[C@@H](CC(C)C)C(=O)N[C@@H](CC(C)C)C(N)=O)(C3)NC(=O)[C@H](CC(C)C)NC(=O)[C@H](Cc3ccccc3)NC(=O)[C@H](C)NC(=O)[C@H](C)NC(=O)[C@H](Cc3cccc(C(=O)O)c3)NC(=O)[C@H](CC(=O)O)NC1=O)NC(=O)[C@H](CC(C)(C)C)NC(=O)[C@H](CC(=O)O)NC2=O (some centres unmarked): 2.7

Next:
response.value for CC(=O)N1CCC[C@]12CC=CCCCC1(CCCC=CCCCOC(=O)N3CC[C@@](C(=O)N[C@@H](Cc4ccccc4Br)C(=O)N[C@@H](Cc4csc5ccccc45)C(=O)N[C@@H](CCC(N)=O)C(N)=O)(C3)NC(=O)[C@H](CC(N)=O)NC(=O)[C@H](Cc3ccccc3)NC(=O)[C@H](C)NC(=O)[C@H](C)NC(=O)[C@H](CN(CC(=O)O)CC(F)(F)F)NC(=O)[C@H](CC(=O)O)NC1=O)NC(=O)[C@H](CC(C)(C)C)NC(=O)[C@H](CC(=O)O)NC2=O (some centres unmarked) (field: IC50) = 3.3
